Test system: K-562 cells
Experiment: Cell growth inhibition assay (CellTiter-Glo), K-562;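 also: cellular ATP measured by luminescence after 4 days of exposure, 3-fold dilution series from 10 µM, DMSO vehicle-treated cells define 100%, cell-free medium wells −100%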
Details: K-562 cells, total growth inhibition, CellTiter-Glo
Exercise: for every item that follows, state its recorded K-562 TGI.

These solved cases illustrate the format of a correct answer.
{"columns": ["Compound", "K-562 TGI"],
 "data": [
  ["Cc1cc(N2C(=O)c3nc(C4CC4)n(C(C)C)c3C2c2ccc(Cl)cc2)cn2c(C)nnc12 (racemic) [Example 13]", ">10 µM"],
  ["COc1cc(C(F)(F)F)ccc1-c1nc2c([nH]1)C(c1ccc(Cl)cc1)N(c1cc(C)c3nnc(C)n3c1)C2=O (stereo not drawn) [Example 136]", ">10 µM"],
  ["Cc1cc(N2C(=O)c3nc(C4CCOCC4)n(C(C)C)c3[C@H]2c2ccc(Cl)cc2)nn2c(C)nnc12 [Example 102]", ">10 µM"],
  ["CCCn1c(-c2cc(OC)ncc2F)nc2c1C(=O)N(c1cc(C)c(=O)n(C)c1)C2c1ccc(Cl)cc1 (stereo not drawn) [Example 36]", ">10 µM"],
  ["Cc1cc(N2C(=O)c3nc(C)n(C(C)C)c3C2c2ccc(Cl)cc2)cn2c(C(F)F)nnc12 (stereo not drawn) [Example 131]", ">10 µM"]
]}

Consider the additional compound presented here.
Record Cc1cc(N2C(=O)c3nc(C4=CCOCC4)n(C(C)C)c3C2c2ccc(Cl)cc2)cn2c(C(F)F)nnc12 (stereo not drawn) [Example 147] has K-562 cells K-562 TGI equal to >10 µM

###

Molecular target: nuclear BRD4-NUT foci in HCC2494 NUT midline carcinoma cells (Homo sapiens, UniProt O60885)
Experiment: cell-based
Outcome measure: pIC50
One number for each entry, as −log10 of the molar value.

Known pIC50 results, listed for orientation:
{"columns": ["Molecule", "pIC50"],
 "data": [
  ["Cc1cc(N2C(=O)c3nc(-c4ncco4)n(C(C)C)c3C2c2ccc(Cl)cc2)cn2c(C)nnc12 (centres unmarked) [Example 15]", 7.10],
  ["Cc1cc(N2C(=O)c3[nH]c(C4CC4)nc3[C@H]2c2ccc(Cl)cc2)cn(C)c1=O [Example 47]", 7.09],
  ["COc1ccc(-c2nc3c(n2C)C(c2ccc(Cl)cc2)N(c2cc(C)c(=O)n(C)c2)C3=O)cn1 (centres unmarked) [Example 8]", 7.04]
]}

Batch lookup, pIC50 per entry.
1. COc1ccc(-c2nc3c([nH]2)C(c2ccc(Cl)cc2)N(c2cc(OC)c4nnc(C)n4c2)C3=O)cn1 (centres unmarked) [Example 125]
2. CCn1c(-c2ccnn2C)nc2c1C(=O)N(c1cc(C)c(=O)n(C)c1)C2c1ccc(Cl)cc1 (centres unmarked) [Example 42]
3. CCn1c(-c2cccnc2OC)nc2c1C(=O)N(c1cc(C)c(=O)n(C)c1)[C@@H]2c1ccc(Cl)cc1 [Example 41]
4. COc1ccc(-c2nc3c([nH]2)C(c2ccc(Cl)cc2)N(c2cc(C)c(=O)n(C)c2)C3=O)cn1 (centres unmarked) [Example 4]

5.71
7.19
8.15
7.13

###

Kindly supply the reported pIC50 values for the records listed here.
Molecular target: CREBBP bromodomain (His-CREBBP(1081-1197)) (Homo sapiens (Human), UniProt Q92793)
Sequence (Q92793 1081-1197): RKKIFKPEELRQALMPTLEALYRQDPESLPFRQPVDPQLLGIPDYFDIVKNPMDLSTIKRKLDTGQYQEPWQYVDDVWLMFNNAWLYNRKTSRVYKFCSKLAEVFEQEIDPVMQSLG
Test: AlphaScreen in-vitro binding assay for CREBBP
Details: single determination or n ≧ 2 independent determinations, read-out: Biochemical IC50 CREBBP
pIC50: −log10 of the molar value.

Examples from the recorded data:
{"columns": ["Molecule", "pIC50"],
 "data": [
  ["Cc1cc(N2C(=O)c3nc(C)n(C(C)C)c3C2c2ccc(Cl)cc2)cn2c(C(F)F)nnc12 (stereo not drawn)", "< 4.43"],
  ["COc1cc(N2C(=O)c3nc(C4CC4)n(C(C)C)c3C2c2ccc(Cl)cc2)cn2c(C)nnc12 (stereo not drawn)", "< 4.43"]
]}

For every record below, what is its pIC50?
1. COc1ncccc1-c1nc2c([nH]1)C(c1ccc(Cl)cc1)N(c1cc(C)c3nnn(C)c3n1)C2=O (stereo not drawn)
2. COc1ncc(-c2nc3c([nH]2)C(c2ccc(Cl)cc2)N(c2cc(OC)c4nnc(C)n4c2)C3=O)c(OC)n1 (stereo not drawn)
3. Cc1cc(N2C(=O)c3nc(C)n(C(C)C)c3[C@H]2c2ccc(Cl)cc2)cn2c(C(F)F)nnc12
4. Cc1cc(N2C(=O)c3nc(C4CC4)n(C(C)C)c3C2c2ccc(Cl)cc2)cn2c(C(F)F)nnc12 (stereo not drawn)

< 4.43
< 4.43
< 4.43
< 4.43
